# test system: BTK (human) (UniProt Q06187)
# Sequence (Q06187 whole entry, looked up): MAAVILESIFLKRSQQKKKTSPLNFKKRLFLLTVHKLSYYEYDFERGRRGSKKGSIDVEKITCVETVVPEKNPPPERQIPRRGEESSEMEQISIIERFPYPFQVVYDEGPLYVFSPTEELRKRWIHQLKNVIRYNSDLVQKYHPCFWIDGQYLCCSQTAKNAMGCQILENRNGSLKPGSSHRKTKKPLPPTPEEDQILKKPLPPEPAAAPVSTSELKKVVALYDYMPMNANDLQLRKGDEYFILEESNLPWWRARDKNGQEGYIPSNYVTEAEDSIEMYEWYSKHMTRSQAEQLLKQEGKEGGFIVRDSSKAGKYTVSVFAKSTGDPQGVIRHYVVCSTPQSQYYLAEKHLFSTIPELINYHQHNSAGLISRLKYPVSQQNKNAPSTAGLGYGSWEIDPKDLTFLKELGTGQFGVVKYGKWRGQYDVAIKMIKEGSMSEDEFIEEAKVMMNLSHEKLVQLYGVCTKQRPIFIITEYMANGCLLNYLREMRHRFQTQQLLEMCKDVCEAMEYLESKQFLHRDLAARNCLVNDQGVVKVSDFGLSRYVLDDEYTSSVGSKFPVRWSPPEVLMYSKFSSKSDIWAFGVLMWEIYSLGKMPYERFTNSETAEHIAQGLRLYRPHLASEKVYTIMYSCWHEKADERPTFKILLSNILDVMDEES
# assay protocol: KINOMEscan competition binding
# condition: compound 10.0 µM
property measured: kinase still bound, per cent of control (%)
Answers are plain numbers, in %.

Give kinase still bound, per cent of control for all compounds that follow.
1. CNC(=O)c1ccc(Nc2cc(Nc3ccccc3S(=O)(=O)C(C)C)c3cc[nH]c3n2)nc1
2. Cc1n[nH]c2ccc(-c3cncc(OC[C@@H](N)Cc4c[nH]c5ccccc45)c3)cc12
3. NC(=O)Nc1cc(-c2cccc(F)c2)sc1C(=O)N[C@@H]1CCCNC1
4. CCN(CC)CCCCNc1ncc2cc(-c3cc(OC)cc(OC)c3)c(NC(=O)NC(C)(C)C)nc2n1
5. CCN1CCN(C(=O)Cc2ccc(Nc3ncc(F)c(Nc4ccc(C(=O)Nc5ccccc5Cl)cc4)n3)cc2)CC1
6. C=CC(=O)Nc1cc(-n2c(=O)ccc3cnc4ccc(-c5cn[nH]c5)cc4c32)ccc1C
7. C=CC(=O)Nc1ccc(CN(C(=O)Nc2c(Cl)c(OC)cc(OC)c2Cl)c2cc(Nc3ccc(N4CCN(C)CC4)cc3)ncn2)cc1
8. COc1cc2ncnc(-n3nc(-c4ccccn4)nc3N)c2cc1OC

1. 0.65
2. 100
3. 0.2
4. 100
5. 27
6. 0.2
7. 1.2
8. 51

====

# test system: SBK1 (human)
# assay protocol: KINOMEscan competition binding
# condition: compound 10.0 µM
property measured: kinase still bound, per cent of control (%)
Answers are plain numbers, in %.

molecular string: COc1cc(N2CCN(C)CC2)ccc1Nc1ncc2c(n1)N(C)c1ccccc1C(=O)N2C
value units: %
kinase still bound, per cent of control: 8.9

Give kinase still bound, per cent of control for all compounds that follow.
1. COc1cc2ncnc(-n3nc(-c4ccccn4)nc3N)c2cc1OC
2. CN(C)C/C=C/C(=O)Nc1ccc(C(=O)Nc2cccc(Nc3nccc(-c4cccnc4)n3)c2)cc1
3. CS(=O)(=O)N1CCN(Cc2cc3nc(-c4cccc5[nH]ncc45)nc(N4CCOCC4)c3s2)CC1
4. O=C1NC(=O)/C(=C/c2ccc3nccc(-c4ccncc4)c3c2)S1
5. COc1ccc(N(C(=O)Oc2c(C)cccc2C)c2ccnc(Nc3ccc(N4CCN(C)CC4)cc3)n2)c(OC)c1
6. CNC(=O)c1cc(Oc2ccc(NC(=O)Nc3ccc(Cl)c(C(F)(F)F)c3)cc2)ccn1
7. COCC(=O)NC/C=C/c1ccc2ncnc(Nc3ccc(Oc4ccc(C)nc4)c(C)c3)c2c1

[100, 100, 100, 73, 100, 89, 100]

Give kinase still bound, per cent of control for all compounds that follow.
1. O=C(Nc1cccc(Nc2ncc(Br)c(NCCc3cnc[nH]3)n2)c1)N1CCCC1
2. C=CC(=O)Nc1cc(-n2c(=O)ccc3cnc4ccc(-c5cn[nH]c5)cc4c32)ccc1C
3. COc1cc(C(=O)N2CCC(N3CCN(C)CC3)CC2)ccc1Nc1ncc2c(n1)N(C)c1ccccc1C(=O)N2C
4. NC(=O)Nc1cc(-c2cccc(F)c2)sc1C(=O)N[C@@H]1CCCNC1
5. O=c1cc(N2CCOCC2)oc2c(-c3cccc4c3sc3ccccc34)cccc12
6. CCN(CC)CCCCNc1ncc2c(n1)N(C)C(=O)N(c1c(Cl)c(OC)cc(OC)c1Cl)C2
7. N#CCNC(=O)c1ccc(-c2ccnc(Nc3ccc(N4CCOCC4)cc3)n2)cc1

1: 3.6; 2: 90; 3: 100; 4: 0; 5: 100; 6: 100; 7: 46

Give kinase still bound, per cent of control for all compounds that follow.
1. COc1cc2ncn(-c3cc(OCc4ccccc4C(F)(F)F)c(C(N)=O)s3)c2cc1OC
2. C[C@@H](Oc1cc(-c2cnn(C3CCNCC3)c2)cnc1N)c1c(Cl)ccc(F)c1Cl

1: 96; 2: 6

// recorded kinase still bound, per cent of control for CCN1CCN(C(=O)Cc2ccc(Nc3ncc(F)c(Nc4ccc(C(=O)Nc5ccccc5Cl)cc4)n3)cc2)CC1 : 75

====

# test system: UniProt Q9NRP7
# Sequence (Q9NRP7 whole entry, looked up): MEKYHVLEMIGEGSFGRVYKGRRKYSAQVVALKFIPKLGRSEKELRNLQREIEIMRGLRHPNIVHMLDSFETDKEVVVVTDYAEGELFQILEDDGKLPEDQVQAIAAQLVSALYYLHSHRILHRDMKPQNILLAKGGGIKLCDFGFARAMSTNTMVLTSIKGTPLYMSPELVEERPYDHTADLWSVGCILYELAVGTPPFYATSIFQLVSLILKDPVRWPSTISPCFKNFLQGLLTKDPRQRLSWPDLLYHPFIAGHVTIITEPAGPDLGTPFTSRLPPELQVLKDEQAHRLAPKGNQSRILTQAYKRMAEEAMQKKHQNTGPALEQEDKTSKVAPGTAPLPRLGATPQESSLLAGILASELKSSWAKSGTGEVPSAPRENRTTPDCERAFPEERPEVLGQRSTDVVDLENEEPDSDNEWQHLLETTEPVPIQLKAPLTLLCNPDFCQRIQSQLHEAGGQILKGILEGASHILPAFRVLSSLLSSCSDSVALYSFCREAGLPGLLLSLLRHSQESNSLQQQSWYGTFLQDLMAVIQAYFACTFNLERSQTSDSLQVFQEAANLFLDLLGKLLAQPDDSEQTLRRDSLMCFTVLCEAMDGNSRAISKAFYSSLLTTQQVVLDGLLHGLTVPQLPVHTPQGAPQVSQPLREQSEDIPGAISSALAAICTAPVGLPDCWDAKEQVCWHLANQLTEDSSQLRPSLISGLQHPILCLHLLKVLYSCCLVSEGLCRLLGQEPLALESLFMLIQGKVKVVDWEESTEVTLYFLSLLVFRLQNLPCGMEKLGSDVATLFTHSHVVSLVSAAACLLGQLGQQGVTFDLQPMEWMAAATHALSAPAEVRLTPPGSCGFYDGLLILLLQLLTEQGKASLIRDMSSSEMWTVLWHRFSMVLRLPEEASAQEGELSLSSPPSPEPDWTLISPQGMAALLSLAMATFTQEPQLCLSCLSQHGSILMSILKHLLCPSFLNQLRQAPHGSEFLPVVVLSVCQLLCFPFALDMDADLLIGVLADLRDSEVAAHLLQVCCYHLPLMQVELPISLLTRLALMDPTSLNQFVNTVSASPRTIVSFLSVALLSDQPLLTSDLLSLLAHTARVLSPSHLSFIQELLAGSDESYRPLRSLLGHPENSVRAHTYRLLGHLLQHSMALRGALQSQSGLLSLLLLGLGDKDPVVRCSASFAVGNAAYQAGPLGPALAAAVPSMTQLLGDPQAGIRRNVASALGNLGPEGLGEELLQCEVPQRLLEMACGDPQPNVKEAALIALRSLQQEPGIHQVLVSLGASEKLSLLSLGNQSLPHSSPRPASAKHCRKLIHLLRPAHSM
# assay protocol: KINOMEscan competition binding
# condition: compound 10.0 µM
property measured: kinase still bound, per cent of control
Answer by giving the amount and then stating its unit.

Use the examples below as a reference point.
molecular string: C=CC(=O)Nc1ccc(CN(C(=O)Nc2c(Cl)c(OC)cc(OC)c2Cl)c2cc(Nc3ccc(N4CCN(C)CC4)cc3)ncn2)cc1
property measured: kinase still bound, per cent of control
result: 100%
--
molecular string: CNC(=O)c1ccc(Nc2cc(Nc3ccccc3S(=O)(=O)C(C)C)c3cc[nH]c3n2)nc1
property measured: kinase still bound, per cent of control
result: 100%
--
molecular string: CN(C)C/C=C/C(=O)Nc1ccc(C(=O)Nc2cccc(Nc3nccc(-c4cccnc4)n3)c2)cc1
property measured: kinase still bound, per cent of control
result: 99%

Give kinase still bound, per cent of control for all molecules that follow.
1. CNC(=O)c1cc(Oc2ccc(NC(=O)Nc3ccc(Cl)c(C(F)(F)F)c3)cc2)ccn1
2. O=C1NC(=O)/C(=C/c2ccc3nccc(-c4ccncc4)c3c2)S1
3. C[C@@H](Oc1cc(-c2cnn(C3CCNCC3)c2)cnc1N)c1c(Cl)ccc(F)c1Cl
4. CS(=O)(=O)N1CCN(Cc2cc3nc(-c4cccc5[nH]ncc45)nc(N4CCOCC4)c3s2)CC1
5. CCN(CC)CCCCNc1ncc2cc(-c3cc(OC)cc(OC)c3)c(NC(=O)NC(C)(C)C)nc2n1
6. O=C(Nc1cccc(Nc2ncc(Br)c(NCCc3cnc[nH]3)n2)c1)N1CCCC1

1. 23%
2. 89%
3. 100%
4. 100%
5. 100%
6. 18%

====

# test system: HUNK (human)
# assay protocol: KINOMEscan competition binding
# condition: compound 10.0 µM
property measured: kinase still bound, per cent of control (%)
Answers are plain numbers, in %.

Use the examples below as a reference point.
molecular string: COc1ccc(N(C(=O)Oc2c(C)cccc2C)c2ccnc(Nc3ccc(N4CCN(C)CC4)cc3)n2)c(OC)c1
value units: %
kinase still bound, per cent of control: 9
--
molecular string: CCN1CCN(C(=O)Cc2ccc(Nc3ncc(F)c(Nc4ccc(C(=O)Nc5ccccc5Cl)cc4)n3)cc2)CC1
value units: %
kinase still bound, per cent of control: 49
--
molecular string: C[C@@H](Oc1cc(-c2cnn(C3CCNCC3)c2)cnc1N)c1c(Cl)ccc(F)c1Cl
value units: %
kinase still bound, per cent of control: 74
--
molecular string: COc1cc2ncnc(-n3nc(-c4ccccn4)nc3N)c2cc1OC
value units: %
kinase still bound, per cent of control: 41
--
molecular string: CS(=O)(=O)N1CCN(Cc2cc3nc(-c4cccc5[nH]ncc45)nc(N4CCOCC4)c3s2)CC1
value units: %
kinase still bound, per cent of control: 100
--
molecular string: C=CC(=O)Nc1cc(-n2c(=O)ccc3cnc4ccc(-c5cn[nH]c5)cc4c32)ccc1C
value units: %
kinase still bound, per cent of control: 86
--
molecular string: COc1cc(N2CCN(C)CC2)ccc1Nc1ncc2c(n1)N(C)c1ccccc1C(=O)N2C
value units: %
kinase still bound, per cent of control: 100
--
molecular string: NC(=O)Nc1cc(-c2cccc(F)c2)sc1C(=O)N[C@@H]1CCCNC1
value units: %
kinase still bound, per cent of control: 68
--
molecular string: O=C1NC(=O)/C(=C/c2ccc3nccc(-c4ccncc4)c3c2)S1
value units: %
kinase still bound, per cent of control: 59
--
molecular string: N#CCNC(=O)c1ccc(-c2ccnc(Nc3ccc(N4CCOCC4)cc3)n2)cc1
value units: %
kinase still bound, per cent of control: 100

Give kinase still bound, per cent of control for all compounds that follow.
1. CCN(CC)CCCCNc1ncc2c(n1)N(C)C(=O)N(c1c(Cl)c(OC)cc(OC)c1Cl)C2
2. O=c1cc(N2CCOCC2)oc2c(-c3cccc4c3sc3ccccc34)cccc12
3. COc1cc(C(=O)N2CCC(N3CCN(C)CC3)CC2)ccc1Nc1ncc2c(n1)N(C)c1ccccc1C(=O)N2C
4. CNC(=O)c1cc(Oc2ccc(NC(=O)Nc3ccc(Cl)c(C(F)(F)F)c3)cc2)ccn1
5. CN(C)C/C=C/C(=O)Nc1ccc(C(=O)Nc2cccc(Nc3nccc(-c4cccnc4)n3)c2)cc1
6. O=C(Nc1cccc(Nc2ncc(Br)c(NCCc3cnc[nH]3)n2)c1)N1CCCC1
7. COc1cc2ncn(-c3cc(OCc4ccccc4C(F)(F)F)c(C(N)=O)s3)c2cc1OC

1: 100; 2: 75; 3: 100; 4: 70; 5: 69; 6: 73; 7: 82

// recorded kinase still bound, per cent of control for COCC(=O)NC/C=C/c1ccc2ncnc(Nc3ccc(Oc4ccc(C)nc4)c(C)c3)c2c1 : 70

====

# test system: MAP3K7 (human)
# assay protocol: KINOMEscan competition binding
# condition: compound 10.0 µM
I'd appreciate it if you could supply kinase still bound, per cent of control values for the items below.
Give bare numbers, in %.

Use the examples below as a reference point.
molecular string: CN(C)C/C=C/C(=O)Nc1ccc(C(=O)Nc2cccc(Nc3nccc(-c4cccnc4)n3)c2)cc1
kinase still bound, per cent of control, %: 9.2
--
molecular string: CCN(CC)CCCCNc1ncc2c(n1)N(C)C(=O)N(c1c(Cl)c(OC)cc(OC)c1Cl)C2
kinase still bound, per cent of control, %: 100

Give kinase still bound, per cent of control for all compounds that follow.
1. CNC(=O)c1cc(Oc2ccc(NC(=O)Nc3ccc(Cl)c(C(F)(F)F)c3)cc2)ccn1
2. COc1cc2ncn(-c3cc(OCc4ccccc4C(F)(F)F)c(C(N)=O)s3)c2cc1OC
3. N#CCNC(=O)c1ccc(-c2ccnc(Nc3ccc(N4CCOCC4)cc3)n2)cc1

1: 6.2; 2: 66; 3: 49

Give kinase still bound, per cent of control for all compounds that follow.
1. O=C(Nc1cccc(Nc2ncc(Br)c(NCCc3cnc[nH]3)n2)c1)N1CCCC1
2. CCN1CCN(C(=O)Cc2ccc(Nc3ncc(F)c(Nc4ccc(C(=O)Nc5ccccc5Cl)cc4)n3)cc2)CC1
3. C=CC(=O)Nc1cc(-n2c(=O)ccc3cnc4ccc(-c5cn[nH]c5)cc4c32)ccc1C
4. CS(=O)(=O)N1CCN(Cc2cc3nc(-c4cccc5[nH]ncc45)nc(N4CCOCC4)c3s2)CC1
5. O=c1cc(N2CCOCC2)oc2c(-c3cccc4c3sc3ccccc34)cccc12
6. COc1cc(C(=O)N2CCC(N3CCN(C)CC3)CC2)ccc1Nc1ncc2c(n1)N(C)c1ccccc1C(=O)N2C

1.3
2.9
0.35
100
100
98

Give kinase still bound, per cent of control for all compounds that follow.
1. COc1ccc(N(C(=O)Oc2c(C)cccc2C)c2ccnc(Nc3ccc(N4CCN(C)CC4)cc3)n2)c(OC)c1
2. C=CC(=O)Nc1ccc(CN(C(=O)Nc2c(Cl)c(OC)cc(OC)c2Cl)c2cc(Nc3ccc(N4CCN(C)CC4)cc3)ncn2)cc1

1: 57; 2: 100
